These measurements were taken from ChEMBL document CHEMBL3988442.

# Test system: Wolbachia pipientis
# Protocol Description: Anti-Wolbachia Cell-Based Screen
# Format: functional
# Design: scale not given: in the data most compounds retested in dose-response had high values
# Conditions: 5 µM
About 13,000 (27%) of roughly 48,000 compounds showed an effect of 50% or more. Some of the results follow.
Readout Type: Percent Effect (%)
One number for each entry, in %.

Compound | Unit Annotation | Percent Effect
O=C(c1ccccn1)N1CCC(Oc2cccnc2)CC1 | % | -15.11
Cc1ncsc1CN1C[C@H]2CC[C@@H]1CN(Cc1ccccc1)C2 | % | 1.915

State recorded Percent Effect for all listed compounds.
1. O=C(O)C(F)(F)F.O=C(c1ccccn1)N1CC[C@H]2[C@H]1CCN2S(=O)(=O)C1CC1
2. O=C(c1cccnc1)N1CC(S(=O)(=O)c2ccc(Cl)cc2)C1
3. COCC(=O)N[C@H](C(=O)NC(C)c1cc(C)ccc1C)C(C)C (stereo not given in full)
4. Cc1cnc(N2CC[C@@H]3O[C@H](COCc4ccccn4)CC[C@@H]32)nc1.O=C(O)C(F)(F)F.O=C(O)C(F)(F)F
5. N#Cc1ccc(F)c(CN2CCCC2Cn2cnc3ccccc32)c1 (stereo not given)
6. CCc1noc(CC)c1CNC(=O)Nc1cccc(C(=O)N(C)C)c1
7. O=C(c1ccccn1)N1C[C@@H]2CC[C@H](C1)N(C(=O)c1ccsc1)C2

Result:
-10.64
139.6
-5.803
-4.87
-5.507
14.38
-66.93

Problem: Name the recorded Percent Effect of the compound listed here: `O=C(c1ccccn1)N1CCC(Oc2ncccc2Cl)CC1`
Result: 6.011

====

# Tested on: Wolbachia pipientis
# Protocol Description: Anti-Wolbachia Cell-Based Screen
# Assay type: functional
# Set-up: scale not given: in the data most compounds retested in dose-response had high values
# Conditions: 5 µM
The whole screen tested about 48,000 compounds, of which about 13,000 (27%) showed an effect of 50% or more. The list shows a part of the results.
So I've got a bunch of compounds here, and I need their Percent Effect values.
One number for each entry, in %.

Observe how each entry below is paired with its result.
Compound | Readout Type | Recorded Result
NC(=O)NCC(=O)N1CCC(c2cc(-c3ccccc3Cl)n[nH]2)CC1 | Percent Effect | 9.084
CS(=O)(=O)N1CCN(C(=O)Cn2ccc3c(Cl)cccc32)CC1 | Percent Effect | 10.52
COc1ccc(-c2cn[nH]c2)cc1CNC1CCCC1 | Percent Effect | -15.21
CN(CC(F)F)C(=O)c1cn(-c2ccc(Br)cc2)cn1 | Percent Effect | 1.903
CC(=O)Nc1cccc2c1ccn2CC(=O)NC(C)C | Percent Effect | 119.7

State recorded Percent Effect for all listed compounds.
1. O=C1CN(C(=O)c2cc(Cl)ccc2F)c2ccccc2N1
2. CCOC(=O)COc1ccc(C(C)=O)c(O)c1
3. Cc1nn(C)c(C)c1OCC(=O)NCC(O)c1ccccc1F (stereo not given)
4. CC(C)(CO)Nc1ccc(-c2nc(-c3ccccc3F)no2)cn1
5. O=C(C1CCC2(CCN(CC3CCOCC3)CC2)O1)N1CCCCO1.O=C(O)C(F)(F)F (stereo not given)
6. Cc1ccc2c(c1)C1(CCN(S(C)(=O)=O)CC1)CN2C(=O)N(C)C
7. CC(=O)Nc1cccc2c1ccn2CC(=O)Nc1nc[nH]n1

Result:
1.511
95.41
-4.984
-13.37
-16.72
0.4399
99.64

State recorded Percent Effect for all listed compounds.
1. C[C@@H](N)C(=O)N1CC2(CCNCC2)c2cc(Cl)ccc21.Cl.Cl
2. CC(=O)c1ccc(OCC(C)O)cc1O (stereo not given)
3. O=C(Cn1ccc2c(Cl)cccc21)Nc1nc[nH]n1
4. CC(C)(CO)Nc1cc(-c2ccncc2)ncn1
5. COc1cccc2c1ccn2CCC(=O)NCCCC(=O)O

Result:
85.61
100.7
213.7
106.2
22.13
